TARGET_UNDER_TEST: PGR (gene 5241)
RUN_DESCRIPTION: TOX21_PR_LUC_Followup_Antagonist: Tox21 HEK293 Progesterone Receptor (PR) Antagonism Luciferase Follow-Up Assay (AID 2283938);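 also: curve fitted upward as signal gain over DMSO baseline despite antagonist label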
Results filed as inconclusive are left out. The source made the active and inactive calls. The calls were made as follows: active = hit-call score of the fitted dose curve at least 0.9, where 1 is the maximum; inconclusive = response in the unintended direction; inactive = score below 0.9.
Outcomes you can answer with include only these: true for active, false for inactive

Query: Look up the recorded call for CC(=O)[C@H]1CC[C@H]2[C@@H]3CC=C4C[C@@H](O)CC[C@]4(C)[C@H]3CC[C@]12C in this test.
Response: false

Query: Look up the recorded call for COC(=O)C1=C(C)NC(C)=C(C(=O)OCCN(C)Cc2ccccc2)C1c1cccc([N+](=O)[O-])c1 (centres undefined) in this test.
Response: true

Query: Look up the recorded call for C[C@]12CC[C@H]3[C@@H](CCC4=CC(=O)CC[C@@]43C)[C@@H]1CC[C@@H]2C(=O)CO in this test.
Response: false

Query: Look up the recorded call for O=c1cc(-c2ccccc2)oc2cc(O)cc(O)c12 in this test.
Response: false

---

Read-out: Monocyte Chemoattractant Protein-1 (MCP1), CCL2 (gene 6347)
RUN_DESCRIPTION: BSK_4H_MCP1: BioMAP Diversity Plus: 4H Assay for Monocyte Chemoattractant Protein-1 (MCP1) Biomarker Activity (AID 2283018)
CONDITION_PARAMETERS: primary human endothelial cells (HUVEC); actives raise or lower the signal
Calls of active or inactive are those of the source. Rule for the calls: active = hit-call score of the fitted dose curve at least 0.9, where 1 is the maximum; inactive = score below 0.9.
OUTCOME_MEASURE: AC50

Example entries and their recorded answers appear below.
compound=O=C1CCCCCCCCCCCCCCO1 meas_value="25.4 µM (active)"
compound=CC(=O)/C=C/C1=C(C)CCCC1(C)C meas_value=inactive
compound=OC[C@H]1O[C@H](O[C@]2(CCl)O[C@H](CCl)[C@@H](O)[C@@H]2O)[C@H](O)[C@@H](O)[C@H]1Cl meas_value=inactive
compound=CC(=O)[C@H]1CC[C@H]2[C@@H]3CC=C4C[C@@H](O)CC[C@]4(C)[C@H]3CC[C@]12C meas_value=inactive
compound=CC(=O)O[C@]1(C(C)=O)CC[C@H]2[C@@H]3C[C@H](C)C4=CC(=O)CC[C@]4(C)[C@H]3CC[C@@]21C meas_value=inactive

Query: Please supply the value of reported AC50 for the item C=C(C)C(=O)O[C@H]1C[C@@H]2CC[C@@]1(C)C2(C)C
Response: 5.54 µM (active)

Query: Please supply the value of reported AC50 for the item O=C1OC2(c3cc(Br)c(O)c(Br)c3Oc3c2cc(Br)c(O)c3Br)c2c(Cl)c(Cl)c(Cl)c(Cl)c21
Response: 1.57 µM (active)

Query: Please supply the value of reported AC50 for the item CN(CCOc1ccc(CC2SC(=O)NC2=O)cc1)c1ccccn1 (centres undefined)
Response: 3.97 µM (active)

Query: Please supply the value of reported AC50 for the item Cc1cc(C2(c3cc(C)c(O)cc3C)OS(=O)(=O)c3ccccc32)c(C)cc1O
Response: inactive

---

Read-out: Thrombomodulin, THBD (gene 7056)
RUN_DESCRIPTION: BSK_3C_Thrombomodulin: BioMAP Diversity Plus: 3C Assay for Thrombomodulin Biomarker Activity (AID 2283029)
CONDITION_PARAMETERS: primary human endothelial cells (HUVEC); actives raise or lower the signal
Active and inactive are the calls of the source. Rule for the calls: active = hit-call score of the fitted dose curve at least 0.9, where 1 is the maximum; inactive = score below 0.9.
OUTCOME_MEASURE: outcome

Example entries and their recorded answers appear below.
compound=NCCNCCN meas_value=inactive
compound=Nc1cc([N+](=O)[O-])ccc1Cl meas_value=inactive
compound=CC(C)c1ccc(C(C)C)cc1 meas_value=inactive
compound=Cc1ccc(Nc2ccc(O)c3c2C(=O)c2ccccc2C3=O)cc1 meas_value=inactive

Query: Please supply the value of reported outcome for the item O=C(O)C[C@H](O)C[C@H](O)/C=C/c1c(C2CC2)nc2ccccc2c1-c1ccc(F)cc1
Response: inactive

Query: Please supply the value of reported outcome for the item O=C(O)c1cn(-c2ccc(F)cc2)c2cc(N3CCNCC3)c(F)cc2c1=O
Response: inactive

Query: Please supply the value of reported outcome for the item CCc1c(C)cc(N)c(CC)c1N
Response: inactive

Query: Please supply the value of reported outcome for the item O=[N+]([O-])c1cc(C(F)(F)F)ccc1Cl
Response: inactive
